Published pIC50 for UniProt:P08684, assembled from different documents, is shown next.
Sequence (P08684 whole entry): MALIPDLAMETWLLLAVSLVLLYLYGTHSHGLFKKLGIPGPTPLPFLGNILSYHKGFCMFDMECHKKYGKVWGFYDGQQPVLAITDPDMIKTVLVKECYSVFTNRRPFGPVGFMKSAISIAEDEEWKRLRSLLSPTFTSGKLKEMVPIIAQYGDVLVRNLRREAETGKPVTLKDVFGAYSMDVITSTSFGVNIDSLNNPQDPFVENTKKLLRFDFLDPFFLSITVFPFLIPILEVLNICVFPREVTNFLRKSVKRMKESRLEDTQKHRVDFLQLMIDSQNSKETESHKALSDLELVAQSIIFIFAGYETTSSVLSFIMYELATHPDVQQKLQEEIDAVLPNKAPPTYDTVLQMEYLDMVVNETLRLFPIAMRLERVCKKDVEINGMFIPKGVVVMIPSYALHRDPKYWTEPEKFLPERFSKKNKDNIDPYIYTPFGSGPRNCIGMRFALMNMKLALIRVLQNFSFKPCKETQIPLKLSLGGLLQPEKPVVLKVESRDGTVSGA
pIC50: −log10 of the molar value.

Worked cases, pIC50 given:
input: Item under review: N[C@@H](CC(=O)N1CCN(C(=O)c2ccc(C(F)(F)F)cc2)CC1)Cc1cc(F)c(F)cc1F . Reported pIC50?
output: 6.00

input: Item under review: NS(=O)(=O)NCC(=O)NCCSc1nonc1/C(=N/O)Nc1ccc(F)c(C(F)F)c1 . Reported pIC50?
output: < 5.00

input: Item under review: O=C(NC1CC(F)(F)C1)c1nsc2cc(Nc3n[nH]c4cccnc34)ccc12 . Reported pIC50?
output: < 4.52

input: Item under review: Cc1nn(-c2cncc([C@@](C)(O)C(F)(F)F)c2)c2ccccc12 . Reported pIC50?
output: < 4.30

input: Item under review: CCN(C)c1nc2ccc(C(=O)N(CC(C)C)C[C@@H](O)[C@H](Cc3ccccc3)NC(=O)OCc3cccnc3)cc2o1 . Reported pIC50?
output: 7.66

input: Item under review: COc1ccc2c(c1)[C@]1(C[C@H]1c1ccc3c(/C=C/c4ccc(CN(C)C)cc4)n[nH]c3c1)C(=O)N2 (relative stereo) . Reported pIC50?
output: < 6.00

input: Item under review: COc1cc(N2CC[C@@H](Oc3ccc(N4N=C(C(F)(F)F)[C@@H](C)[C@@H]4CC(=O)O)cc3)[C@H](C)C2)c(Cl)cn1 . Reported pIC50?
output: 5.47

input: Item under review: Cc1csc(Cn2c(C3CCCN(C4CCOCC4)C3)nc3ccccc32)n1 (centres undefined) . Reported pIC50?
output: < 5.30

Here is the next item to consider.
input: Item under review: O=C(O)CCc1cc2cc(-c3cc(OC(F)(F)F)ccc3F)ccc2o1 . Reported pIC50?
output: < 4.30
